- System: SF-295 CNS
- MEASUREMENT_PROTOCOL: NCI-60 one-dose screen, 48 h
- PARTICULARS: 10 µM unless noted
This is part of a sample that, as a whole, favours compounds with a hit. Of some 83,000 tested, about 20% had one in any assay. Active and inactive are the calls of the source. Rule for the calls: active = growth percent below 10; inactive = the rest.
Your response should consist of one outcome taken from active, inactive

Hi, do you know how COc1ccc(CNS(=O)(=O)/N=C2\NC(=O)NC2=C(Cl)Cl)cc1 came out in this test?
active

What is the recorded call for this molecule in the test? CS(=O)(=O)c1ccc(-c2nc3ccccn3c2/C=N/Nc2nc(-c3ccc(Cl)cc3)cs2)cc1
inactive

What call does the record list for Nc1nc(N)c2c(n1)NC(c1ccc(F)cc1)CC(c1ccc(Nc3nc(NCCO)nc(Nc4ccc(Cl)cc4)n3)cc1)=N2 (stereo unspecified) ?
active

What did this assay record as the result for Clc1ccc2c(NCCCn3ccnc3)c3oc4ccccc4c3nc2c1 ?
inactive

Lab log entry: O=C(N/N=C/c1ccc(Cl)s1)c1[nH]c2ccc(Br)cc2c1-c1ccccc1 — outcome as called in the assay?
inactive

Record lookup: outcome of this test for Clc1ccc2c(OCCCN3CCOCC3)c3oc4ccccc4c3nc2c1 ?
inactive

Called result for C/C(=N\NC(N)=O)c1c(O)sc(=O)[nH]c1=O
inactive

Field: outcome | Entry: Cc1ccccc1NC(=O)/C=C/c1ccc(OCCOc2ccc3c(C)cc(=O)oc3c2)cc1
inactive

Which outcome was entered for the molecule COc1cccc(OC)c1-c1nnn(C)c1C(=S)N1CCN(c2ccc([N+](=O)[O-])cc2Cl)CC1 in this test?
inactive

What call does the record list for Clc1ccc(-c2cn3cc(Cc4ccc(Cl)c(Cl)c4)sc3n2)cc1 ?
inactive

What call does the record list for C=CCSc1ccc2c(c1)C(N1CCNCC1)=Nc1ccccc1O2 ?
inactive

Test call for this molecule, please: CN(C)c1ccc(/C=c2\sc3nc4ccccc4n3c2=O)cc1
inactive

What outcome does the record of this test show for CCOC(=O)c1c(Nc2ccccc2)nn2c(N)c(C#N)c(-c3ccc(OC)cc3)nc12 ?
inactive

Dear colleague, could you share the recorded outcome for Nc1c(C(=O)Nc2ccc(C(F)(F)F)cc2)sc2nc(-c3cnccn3)cc(-c3cccs3)c12 when you have a moment?
inactive

Assay outcome for O=C(Nc1nc2ccc(O)cc2s1)c1cccc(C(F)(F)F)c1 : what was it?
inactive

Hey, what did the test say about COc1cccc(-c2nn(-c3ccccc3)cc2-c2ccnc(N3CCN(C(=O)c4ccccc4)CC3)c2)c1 ?
inactive

Please let me know the test result on file for Cc1cc(=O)oc2cc(OCCCOc3ccc(/C=C/C(=O)Nc4ccc(Cl)cc4)cc3)ccc12 .
inactive

Can you look up the reported call for CN(C)CCCOc1c2ccc(Cl)cc2nc2c1oc1ccccc12 for me?
active

Identify the outcome logged in this assay for the molecule shown: C#Cc1nc(C2=C(C)/C(=N/OCc3ccccc3)CC2)cs1
active

Outcome? OC1CCc2c(-c3ccc4ncnc(N5CCc6cc(F)c(Cl)cc65)c4c3)cncc21 (stereo unspecified)
inactive

Recorded test outcome, item O=C(CN1C(=O)/C(=C/c2ccccc2)SC1=S)N1CCOCC1
inactive

Per the records of this test, what outcome belongs to NC(=O)c1cc(-c2ccc3ncnc(N4CCc5cc(F)c(Cl)cc54)c3c2)cnc1N ?
inactive

Per the records of this test, what outcome belongs to OC1CCN(CCCOc2c3ccc(Cl)cc3nc3c2oc2ccccc23)CC1 ?
active

What is the recorded call for this molecule in the test? CNC(=O)c1cc(-c2ccc(NC(=O)Nc3ccc(N4CCN(C)CC4)c(C(F)(F)F)c3)cc2)nc2cccnc12
active

What did this assay record as the result for Nc1nc(N)c2c(n1)NC(c1ccc(C(F)(F)F)cc1)CC(c1ccc(Nc3nc(NCCO)nc(Nc4ccc(Cl)cc4)n3)cc1)=N2 (stereo unspecified) ?
active

# fetch the recorded call for CN1C(=S)N(C)C2C1NN=C1SC(c3ccccc3)=CC(=O)N12 (stereo unspecified) here
inactive

For this molecule, state the assay outcome: Cc1nc(-c2cc3ccccc3oc2=O)ccc1C(=O)/C=C/c1ccccn1
inactive

What was the test verdict on Cc1c(Nc2nnc(SCC(=O)Nc3sc4c(c3C#N)CCCC4)s2)c(=O)n(-c2ccccc2)n1C ?
inactive

Assay outcome for CCOC(=O)c1c(Nc2ccccc2)nn2c(N)c(C#N)c(-c3ccc(F)cc3)nc12 : what was it?
inactive

Dear colleague, could you share the recorded outcome for O=C(c1ccc(Cl)cc1)C1[C@H](c2ccc(Cl)cc2)[C@@H](c2ccccc2)NC12C(=O)Nc1ccc(Br)cc12 (stereo partly specified) when you have a moment?
inactive

In this assay, the call recorded for COc1ccc2[nH]cc(-c3cc(N)n4nc(-c5c[nH]c6ccc(OC)cc56)cc4n3)c2c1 was what?
inactive
